Test Details: HTRF signal interference by compounds, confirmation, artefact control for SUMOylation inhibitor project, biochemical, uHTS (AID 2069)
Condition Label: HTRF interference counterscreen, fluorescence, at 35 µM, stronger effect = higher value
Among all 1,200 compounds or so, about 210 (18%) were called active. Not all results are given here.
Would you kindly list inhibition for each of these compounds?

Challenge: Entry under review: `COc1ccccc1NC(=O)Cn1nc(C)n2cccc2c1=O` . Reported inhibition?
Response given: -4.55% (inactive)

Challenge: Entry under review: `Cc1ccc(-c2nn(-c3ccccc3)cc2/C=C2\SC(=S)N(CCCCCC(=O)O)C2=O)o1` . Reported inhibition?
Response given: 37% (active)

Challenge: Entry under review: `CC1=NOC(=O)/C1=C\c1ccc(-c2cc(Cl)ccc2Cl)o1` . Reported inhibition?
Response given: 11% (inactive)

Challenge: Entry under review: `Cc1ccc(S(=O)(=O)c2cc3c(=O)n4ccccc4nc3n(Cc3ccco3)c2=N)cc1` . Reported inhibition?
Response given: -2.55% (inactive)

Challenge: Entry under review: `O=C(CCCN1C(=O)/C(=C/c2ccco2)SC1=S)Nc1ccccc1C(=O)O` . Reported inhibition?
Response given: 1.8% (inactive)

Challenge: Entry under review: `Cc1ccc(S(=O)(=O)NNC(=S)Nc2c(Cl)cccc2Cl)cc1` . Reported inhibition?
Response given: -4.65% (inactive)

Challenge: Entry under review: `N=c1c(S(=O)(=O)c2ccccc2)cc2c(=O)n3ccccc3nc2n1Cc1ccco1` . Reported inhibition?
Response given: 14.8% (inactive)

Challenge: Entry under review: CCOC(=O)C1=C(C)N=c2s/c(=C\c3ccc(OCC(=O)O)cc3)c(=O)n2C1c1ccc(OC(C)C)cc1 (centres undefined) . Reported inhibition?
Response given: 12.8% (inactive)

Challenge: Entry under review: `O=C(O)CCCN1C(=O)/C(=C/c2cn(-c3ccccc3)nc2-c2cccs2)SC1=S` . Reported inhibition?
Response given: 4.55% (inactive)

Challenge: Entry under review: `CCc1cc2c(=O)c(Oc3ccccc3F)c(C)oc2c(CN(C)C)c1O` . Reported inhibition?
Response given: 62.9% (active)

Challenge: Entry under review: `N#Cc1c2nc3ccccc3nc2n2cc(NC(=O)c3ccc(F)cc3)ccc12` . Reported inhibition?
Response given: 3% (inactive)

Challenge: Entry under review: `COc1ccccc1NC(=O)Nc1ccnn1Cc1cccs1` . Reported inhibition?
Response given: 63.1% (active)

Challenge: Entry under review: `CCC(=O)OCCNc1cc(Sc2nc3ccccc3s2)c2nonc2c1[N+](=O)[O-]` . Reported inhibition?
Response given: 1.05% (inactive)

Challenge: Entry under review: `Cc1oc2c(c1C(=O)O)C(=O)c1ccccc1C2=O` . Reported inhibition?
Response given: -5.95% (inactive)

Challenge: Entry under review: `Cc1c(N=C2C=CC(=O)c3ccccc32)c(=O)n(-c2ccccc2)n1C` . Reported inhibition?
Response given: -29.4% (inactive)

Challenge: Entry under review: `O=C(O)CCCN1C(=O)/C(=C/C=C/c2ccco2)SC1=S` . Reported inhibition?
Response given: 11.7% (inactive)

Challenge: Entry under review: `Cc1cc2c(NC(=O)Nc3ccc(C(C)(C)C)cc3)cccc2nn1` . Reported inhibition?
Response given: 18.8% (inactive)

Challenge: Entry under review: `N=C1/C(=C/c2cccn2Cc2ccc(Cl)cc2)C(=O)N=C2SC=CN12` . Reported inhibition?
Response given: 18.8% (inactive)

Challenge: Entry under review: `N=c1c(S(=O)(=O)c2ccc(Br)cc2)cc2c(=O)n3ccccc3nc2n1Cc1ccco1` . Reported inhibition?
Response given: -13.2% (inactive)
